- subjectOfTest: T1, eGFP-CXCR4 (UniProt P61073 1-352)
- T1 construct: whole, on cells; not shown: EGFP part of the fusion
- protocol: competition with 100 nM CXCL12-TexasRed on cells expressing eGFP-CXCR4, real-time fluorescence
parameter: Ki (nM)
Expressed in nM, but write only the number.

Problem: State the recorded Ki for this entry: LVRYTKKVPQVSTPTL (Chemically synthesized fragment of human serum albumin (HSA)) [peptide of SEQ ID NO 16 (408-423)]
Solution: 3000
